Numbers sourced from ChEMBL document CHEMBL1123873.

system: Rattus norvegicus; assay: In vivo inhibition of LTE4 (leukotriene)-induced skin wheal formation in rat and percent inhibition was reported at 100 mg/Kg administered perorally; details: po
Where inhibition in vivo at 100 mg/kg equals or exceeds 60%, the correct label is Criterion met; where it does not, the label is Criterion not met.

Asked: Please check the record "O=C(O)c1ccc(OCCn2ccnc2)cc1" and state if its inhibition in vivo at 100 mg/kg is at or above 60%.
Given back: Criterion not met

Asked: Also "CC(C)c1ccc2nc3ccc(C(=O)NCCCCc4ccncc4)cn3c(=O)c2c1.Cl.Cl" , if possible.
Given back: Criterion met

Asked: Also "CC(C)c1ccc2nc3ccc(C(=O)NCCCCCCc4cccnc4)cn3c(=O)c2c1" , if possible.
Given back: Criterion met

Asked: Also "CC(C)c1ccc2nc3ccc(C(=O)NCCCCOc4cccnc4)cn3c(=O)c2c1.Cl.Cl" , if possible.
Given back: Criterion not met

Asked: Also CCCc1c(OCC(O)COc2ccc3c(=O)cc(C(=O)O)oc3c2CCC)ccc(C(C)=O)c1O (configuration not stated) , if possible.
Given back: Criterion not met

Continuing:
Asked: Please check the record "CC(C)c1ccc2nc3ccc(C(=O)NCCCCCc4cccnc4)cn3c(=O)c2c1.Cl.Cl" and state if its inhibition in vivo at 100 mg/kg is at or above 60%.
Given back: Criterion met

Asked: Also "CC(C)c1ccc2nc3ccc(C(=O)NCCCCn4ccnc4)cn3c(=O)c2c1.Cl.Cl" , if possible.
Given back: Criterion met

====

target: Thromboxane-A synthase (Homo sapiens); assay: Inhibition of human platelet thromboxane synthase (TXA2) was determined in human platelets
Sequence (P24557 whole entry): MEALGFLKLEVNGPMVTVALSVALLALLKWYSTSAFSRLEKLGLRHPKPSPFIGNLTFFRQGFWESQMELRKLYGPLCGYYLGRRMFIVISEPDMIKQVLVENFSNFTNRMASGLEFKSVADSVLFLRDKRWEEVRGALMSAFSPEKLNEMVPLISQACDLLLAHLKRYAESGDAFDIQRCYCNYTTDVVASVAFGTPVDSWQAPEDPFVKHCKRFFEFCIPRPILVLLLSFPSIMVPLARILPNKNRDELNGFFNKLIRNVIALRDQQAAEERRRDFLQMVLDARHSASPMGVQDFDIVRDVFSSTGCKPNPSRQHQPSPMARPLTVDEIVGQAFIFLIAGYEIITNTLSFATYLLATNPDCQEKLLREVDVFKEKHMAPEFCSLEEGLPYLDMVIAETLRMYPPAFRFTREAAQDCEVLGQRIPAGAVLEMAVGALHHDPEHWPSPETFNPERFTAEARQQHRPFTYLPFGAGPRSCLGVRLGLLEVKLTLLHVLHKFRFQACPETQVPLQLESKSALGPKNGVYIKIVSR
Each record is given satisfied if its reported IC50 is strictly below 1 µM. Records at or above 1 µM are given not satisfied.

Asked: Hello, I'm reviewing records and need to know if IC50 of "CC(C)c1ccc2nc3ccc(C(=O)NCCc4cccnc4)cn3c(=O)c2c1" is below 1 µM. Could you check?
Given back: not satisfied

Asked: Also "CC(C)c1ccc2nc3ccc(C(=O)NCCCCc4ccccn4)cn3c(=O)c2c1" , if possible.
Given back: not satisfied

Asked: Also "Cc1nccn1CCCCNC(=O)c1ccc2nc3ccc(C(C)C)cc3c(=O)n2c1" , if possible.
Given back: not satisfied

Continuing:
Asked: Hello, I'm reviewing records and need to know if IC50 of "CC(C)c1ccc2nc3ccc(C(=O)NCCCCc4cccnc4)cn3c(=O)c2c1" is below 1 µM. Could you check?
Given back: satisfied

Asked: Also CCCc1c(OCC(O)COc2ccc3c(=O)cc(C(=O)O)oc3c2CCC)ccc(C(C)=O)c1O (centres undefined) , if possible.
Given back: not satisfied

====

molecular target: Thromboxane-A synthase (Homo sapiens); assay: Inhibition of human platelet thromboxane synthase (TXA2) was determined in human platelets
Below, each entry is listed with its recorded IC50.

Use the examples below as a reference point.
Asked: Which IC50 is listed for CC(CCCc1cccnc1)NC(=O)c1ccc2nc3ccc(C(C)C)cc3c(=O)n2c1 (centres undefined) ?
Given back: 1000 nM

Asked: Also "CC(C)c1ccc2nc3ccc(C(=O)NCCCCCc4cccnc4)cn3c(=O)c2c1.Cl.Cl" , if possible.
Given back: 100 nM

Asked: Also "CC(C)c1ccc2nc3ccc(C(=O)NCCCc4cccnc4)cn3c(=O)c2c1" , if possible.
Given back: 100 nM

# context switch: different compound, same IC50
Asked: Which IC50 is listed for "CC(C)c1ccc2nc3ccc(C(=O)NCCCCc4ccncc4)cn3c(=O)c2c1.Cl.Cl" ?
Given back: 100 nM
